- Tested on: IGROV1 ovarian
- protocolSummary: NCI tumour cell line growth inhibition, 48 h
observedProperty: TGI (µM)
Give just the number in µM; leave the unit off.

Use the examples below as a reference point.
Entry Clc1ncc(C(Cl)(Cl)Cl)nc1-c1ccccc1 , system IGROV1 ovarian: what TGI was measured?
8.05

Entry COC(=O)Nc1nc2ccc(Sc3ccc(NC(=O)Nc4cc(C(F)(F)F)ccc4F)cc3)cc2[nH]1 , system IGROV1 ovarian: what TGI was measured?
11.1

Entry COc1ccc(C=O)cc1Oc1ccc(C[C@H]2c3c(cc(OC)c4c3Oc3cc5c(cc3O4)CCN(C)C5=O)CCN2C)cc1 , system IGROV1 ovarian: what TGI was measured?
13.7

Entry C/C(=N\O)c1ccc(Nc2c3ccccc3nc3occc23)cc1 , system IGROV1 ovarian: what TGI was measured?
8.59

Now for the molecule whose TGI we want.
Entry CCCCC(=C=C1CCCCC1O)C1CCCN1C(=O)OC(C)(C)C (stereo not given) , system IGROV1 ovarian: what TGI was measured?
31.1
